Target: recombinant human ALK5 (TGF-βR1) protein (Homo sapiens)
Construct: purchased Life Technologies PR9075A
Experiment: Biochemical ALK5 (TGF-βR1) assay to measure pKi (LANCE Ultra ULight kinase assay)
Conditions: apparent pKi from pIC50 by Cheng-Prusoff, read-out: ALK5 pKi (converted)
# Ki values compiled below

- Compound: "Cc1cccc(-c2[nH]cnc2-c2ccc3ncc(-c4ccc(C(=O)O[C@H]5CCNC5)nc4)cc3c2)n1 [Compound 1122]"
  Ki: "0.0398 to 0.316 nM"

Next item in the queue.
Task item: Which Ki is listed for Cc1cccc(-c2n[nH]cc2-c2ccc3ncc(OCCN4CCN(C(C)C)CC4)cc3n2)n1 [Compound 241] ?
Reply: 0.0398 to 0.316 nM

---

Biological target: recombinant human ALK5 (TGF-βR1) protein (Homo sapiens, UniProt P36897)
Construct: purchased Life Technologies PR9075A
Sequence (P36897 34-503): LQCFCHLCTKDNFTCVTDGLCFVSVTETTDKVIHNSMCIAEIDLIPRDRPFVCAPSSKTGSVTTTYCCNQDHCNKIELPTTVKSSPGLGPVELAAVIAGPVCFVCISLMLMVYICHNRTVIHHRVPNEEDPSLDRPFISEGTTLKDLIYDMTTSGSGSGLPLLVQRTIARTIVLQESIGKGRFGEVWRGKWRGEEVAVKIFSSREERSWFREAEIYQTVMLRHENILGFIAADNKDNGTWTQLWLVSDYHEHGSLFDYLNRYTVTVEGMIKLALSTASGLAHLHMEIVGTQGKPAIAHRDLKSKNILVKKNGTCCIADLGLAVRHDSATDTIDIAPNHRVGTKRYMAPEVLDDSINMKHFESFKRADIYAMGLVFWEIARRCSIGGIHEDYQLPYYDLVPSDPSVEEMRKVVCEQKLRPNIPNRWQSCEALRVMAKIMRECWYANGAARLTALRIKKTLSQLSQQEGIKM
Assay: Biochemical ALK5 (TGF-βR1) assay to measure pKi (LANCE Ultra ULight kinase assay)
Details: apparent pKi from pIC50 by Cheng-Prusoff, read-out: ALK5 pKi (converted)
# Ki values compiled below

Here's what some known entries look like.
- Molecule: "Cc1cccc(-c2n[nH]cc2-c2ccc3ncc(-c4cccnc4O)cc3n2)n1"
  Ki: "< 0.0316 nM"
- Molecule: "Cc1cccc(-c2n[nH]cc2-c2ccc3nccc(N4CC(N5CCOCC5)C4)c3n2)n1"
  Ki: "0.398 to 3.16 nM"
- Molecule: "Cc1cccc(-c2n[nH]cc2-c2ccc3ncc(N4CC5CN(C)CC54)cc3n2)n1 (stereo not drawn)"
  Ki: "0.0398 to 0.316 nM"
- Molecule: "Cc1cccc(-c2[nH]ncc2-c2ccc3nccc(C(=O)OC[C@H]4CC[C@@H](N)CC4)c3c2)n1"
  Ki: "0.398 to 3.16 nM"
- Molecule: "Cc1cccc(-c2[nH]ncc2-c2ccc3nccc(C(=O)O[C@H]4C[C@@H](N)C4)c3c2)n1"
  Ki: "0.398 to 3.16 nM"
- Molecule: "Cc1cccc(-c2[nH]cnc2-c2ccc3ncc(-c4ncc(C(=O)OCCN5CCNCC5)cn4)cc3c2)n1"
  Ki: "< 0.0316 nM"

Next item in the queue.
Task item: Which Ki is listed for Cc1cccc(-c2n[nH]cc2-c2ccc3ncc(NCCN4CCN(C(C)C)CC4)cc3n2)n1 ?
Reply: < 0.0316 nM

---

Target: recombinant human ALK5 (TGF-βR1) protein (Homo sapiens)
Construct: purchased Life Technologies PR9075A
Test: Biochemical ALK5 (TGF-βR1) assay to measure pKi (LANCE Ultra ULight kinase assay)
Settings: apparent pKi from pIC50 by Cheng-Prusoff, read-out: ALK5 pKi (converted)
# Ki values compiled below

Here's what some known entries look like.
- Molecule: "Cc1cccc(-c2nc3ccccn3c2-c2ccc3ncc(-c4cnc5n4CCN5)cc3n2)n1 [Compound 23]"
  Ki: "< 0.0316 nM"
- Molecule: "Cc1cccc(-c2[nH]ncc2-c2ccc3ncc(C(=O)OCCN4CCCCC4)cc3c2)n1 [Compound 1173]"
  Ki: "0.0398 to 0.316 nM"
- Molecule: "Cc1nc(-c2nc3ccccn3c2-c2ccc3ncc(N4CCC(N5CCN(C)CC5)CC4)cc3n2)ccc1F [Compound 47]"
  Ki: "0.0398 to 0.316 nM"

Next item in the queue.
Task item: Which Ki is listed for Cc1cccc(-c2n[nH]cc2-c2ccc3ncc(NC(=O)C(F)(F)F)cc3n2)n1 [Compound 610] ?
Reply: 0.0398 to 0.316 nM
